method summary: protein stability index of a GFP-peptide fusion (yeast GPS) (PSI 1-4); higher = more stable; sorted into four equal gates, so the index is relative within each strain
particulars: pdr5∆
property: protein stability index

{"entry sequence": "FSWISVVNDLVGEKLVV [SIR3]", "property": "protein stability index", "recorded result": 2.58}
{"entry sequence": "AGVLNGTLEYGTCFGGS [RET1]", "property": "protein stability index", "recorded result": 2.91}
{"entry sequence": "GKEHIVAALVSLTEKFS [ECM29]", "property": "protein stability index", "recorded result": 1.95}
{"entry sequence": "LLNTDHTLDPSLLESGS [RPO21]", "property": "protein stability index", "recorded result": 2.94}
{"entry sequence": "SGDNHTQQSHEQQPEQP [RPT4]", "property": "protein stability index", "recorded result": 3.15}

----------
method summary: protein stability index of a GFP-peptide fusion (yeast GPS) (PSI 1-4); higher = more stable; sorted into four equal gates, so the index is relative within each strain
particulars: san1∆

{"entry sequence": "QEQLKNVKNDVSFNDSQ [YIL149C/MLP2]", "protein stability index": 3.08}
{"entry sequence": "GFSTGIGDTIADGPTMR [RPO21]", "protein stability index": 3.03}
{"entry sequence": "THTNLERDEQKRAEKKA [SNF2]", "protein stability index": 2.77}
{"entry sequence": "SYRGVDLEKLLEMSTED [RPS15]", "protein stability index": 2.27}
{"entry sequence": "NLLLSASRDKTLISWKL [ASC1]", "protein stability index": 3.21}

----------
method summary: protein stability index of a GFP-peptide fusion (yeast GPS) (PSI 1-4); higher = more stable; sorted into four equal gates, so the index is relative within each strain
particulars: doa10∆
Given measured protein stability index, output 1.0 if it is greater than or equal to 3 and 0.0 if not.

{"entry sequence": "HDIAYSKDGLPNKVKTE [RRP6]", "classification": 0.0}
{"entry sequence": "PVNTGVLHVSAKGKSGV [RRP40]", "classification": 0.0}
{"entry sequence": "NNVNEYSYTTIVLSDQT [YJL039C/NUP192]", "classification": 1.0}
{"entry sequence": "LSCEKITHYAVRGGNIE [RRI1]", "classification": 0.0}
{"entry sequence": "DDTWYNLTEFVQMDKIR [AAR2]", "classification": 0.0}
{"entry sequence": "TNQLVLLQKMLNLLNYQ [YML103C/NUP188]", "classification": 0.0}
{"entry sequence": "LRKSELEYYAMLSKTKV [RPL30]", "classification": 0.0}
{"entry sequence": "SPSYSPTSPNYSPTSPS [RPO21]", "classification": 0.0}
{"entry sequence": "HNGRDKIQFHIHFADVA [RGR1]", "classification": 0.0}
{"entry sequence": "KPSLVDVHLLESKVYHK [RPN6]", "classification": 0.0}
{"entry sequence": "ENPAFLPGTNNNSNSNN [SEC65]", "classification": 1.0}
{"entry sequence": "MSFIFPSYAERQSSDES [YML031W/NDC1]", "classification": 0.0}
{"entry sequence": "SNQLISNYAASNSMDRS [SWI1]", "classification": 1.0}
{"entry sequence": "ATQKESLEMVPKDTSAA [RGR1]", "classification": 1.0}
{"entry sequence": "LSIAIVGKDTPFTIYDG [PRE5]", "classification": 0.0}
{"entry sequence": "NTSAATVHTATSSSIIL [SSN2]", "classification": 0.0}
{"entry sequence": "TKIKDAEEDSLLSGEDL [YJL039C/NUP192]", "classification": 1.0}
{"entry sequence": "NSSESDEEESNDEKQKA [RPN13]", "classification": 1.0}
{"entry sequence": "ENESTNYQYKIQELRKL [MED7]", "classification": 0.0}
{"entry sequence": "FALIDYFYDLDVLKDGE [BRN1]", "classification": 0.0}
{"entry sequence": "FEGTDDNEEASVKLDLQ [BRN1]", "classification": 1.0}
{"entry sequence": "QQQQQQQNPKFLQSQRQ [SWI1]", "classification": 0.0}
{"entry sequence": "MEADPSLHPLFEQFEKF [RPN9]", "classification": 0.0}
{"entry sequence": "ASFNDTFVHVTDLSGKE [RPS14A]", "classification": 0.0}
{"entry sequence": "MVNSHGIRYIRLKQVFN [NNF1]", "classification": 0.0}
{"entry sequence": "NYEDVGRFLRVPKEGLF [BRR2]", "classification": 1.0}
{"entry sequence": "STGLKNASDALKGRVVE [RPS1B]", "classification": 1.0}
{"entry sequence": "ASKKSGGDVVKFQKLLQ [SMC4]", "classification": 1.0}
{"entry sequence": "YIHLAYSRSVDKEWVFA [SSN2]", "classification": 0.0}
{"entry sequence": "PSKVSKIDSHVVLSFSG [PRE6]", "classification": 0.0}
{"entry sequence": "YSKAAEPHAVSLAWSAD [ASC1]", "classification": 0.0}
{"entry sequence": "SLKLENSDLEGKIRGVE [SMC2]", "classification": 1.0}
{"entry sequence": "IRALQPKLKEGALHFVQ [YIL149C/MLP2]", "classification": 0.0}
{"entry sequence": "DAWVSAAHYNRERIKRG [PRP8]", "classification": 0.0}
{"entry sequence": "SKINSTELLDYATKLSK [MED4]", "classification": 0.0}
{"entry sequence": "RNSWNFALIDYFYDLDV [BRN1]", "classification": 0.0}
{"entry sequence": "GRTGNGNMGITTEMLDK [MED6]", "classification": 1.0}
{"entry sequence": "GLQNVRKVRTKKWKKYW [SWP82]", "classification": 1.0}
{"entry sequence": "PVRTIVPISTSQTNNSF [SIR4]", "classification": 0.0}
{"entry sequence": "FLQPLLLVGLIKTFYWL [NUT1]", "classification": 0.0}
{"entry sequence": "HPFGHALVAGIERYPLK [RPL27A]", "classification": 0.0}
{"entry sequence": "VVKGRVEKTLLSDVAFY [RPO31]", "classification": 0.0}
{"entry sequence": "FPTTSHESLVTTLLRKK [MED8]", "classification": 0.0}
{"entry sequence": "DVSQLIAGINKKKGLDE [PRP28]", "classification": 1.0}
